# TEST_SYSTEM: T1, cynomolgus monkey FcRn (cynomolgus monkey, UniProt Q8SPV9 24-297; Q8SPW0 21-119, limits assumed)
# T1 construct: also called Cynomolgus FcRn
# T1 sequence (Q8SPV9 24-297 limits assumed, chain 1 of 2): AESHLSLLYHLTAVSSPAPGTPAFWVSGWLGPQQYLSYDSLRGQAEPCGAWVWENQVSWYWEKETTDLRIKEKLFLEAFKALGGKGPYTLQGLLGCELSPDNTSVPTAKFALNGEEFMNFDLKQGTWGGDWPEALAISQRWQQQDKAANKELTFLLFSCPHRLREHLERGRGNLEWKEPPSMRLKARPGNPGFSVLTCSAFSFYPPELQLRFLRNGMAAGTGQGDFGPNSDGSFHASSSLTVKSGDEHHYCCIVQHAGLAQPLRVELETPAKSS
# T1 sequence (Q8SPW0 21-119 limits assumed, chain 2 of 2): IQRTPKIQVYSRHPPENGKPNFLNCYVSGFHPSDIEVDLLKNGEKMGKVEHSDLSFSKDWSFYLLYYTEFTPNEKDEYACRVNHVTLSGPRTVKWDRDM
# TEST: SPR competition pH 5.5
Known pEC50 of a selection of binders
pEC50 (log units): -log10 of the concentration in mol/L.

BINDER	ASSAY_VALUE
variant Fc-fragment Fc-5-69 (other, soluble elsewhere) EPKSCDKTHTCPPCPAPELLGGPSVFLFPPKPKDTLMISRTPEVTCVVVDVSHEDPEVKFNWYVDGVEVHNAKTKPREEQYNSTYRVVSVLTVLHQDWLNGKEYKCKVSNKALPAPIEKTISKAKGQPREPQVYTLPPSRDELTKNQVSLTCLVKGFYPSDIAVEWESNGGCWPLQDYCGGGQPENNYKTTPPVLDSDGSFFLYSKLTVDKSRWQQGNVFSCSVMHEALHNHYTQKSLSLSPGK	7.74

Now examine the next entry.
# input Which pEC50 value belongs to variant Fc-fragment Fc-5-55 (other, library L5 isolate) EPKSCDKTHTCPPCPAPELLGGPSVFLFPPKPKDTLMISRTPEVTCVVVDVSHEDPEVKFNWYVDGVEVHNAKTKPREEQYNSTYRVVSVLTVLHQDWLNGKEYKCKVSNKALPAPIEKTISKAKGQPREPQVYTLPPSRDELTKNQVSLTCLVKGFYPSDIAVEWESNGGCMQVWGSCGGGQPENNYKTTPPVLDSDGSFFLYSKLTVDKSRWQQGNVFSCSVMHEALHNHYTQKSLSLSPGK ?
# output 7.28
